# MIC annotations
# Test system: Enterococcus hirae
# protocol text: Antibacterial activity against Enterococcus hirae ATCC 8043
# Type: functional
Numeric answer only, unit µg/mL assumed.

[
  {
    "molecule": "CCCCC1C23C4=c5c6c7c8c9c%10c%11c%12c%13c%14c%15c%16c%17c%18c%19c%20c%21c%22c%23c(c5c5c6c6c8c%11c8c%11c%12c%15c%12c(c%20%16)c%21c%15c%23c5c(c68)c%15c%12%11)C2(C[N+]1(C)C)C%22C%19c1c-%18c2c5c(c13)C4C7C9=C5C1(C2C%17%14)C(CCCC)[N+](C)(C)CC%10%131.[I-].[I-] (configuration not stated)",
    "scale unit": "µg/mL",
    "MIC": 6.25
  },
  {
    "molecule": "CN[C@H](CC(C)C)C(=O)N[C@H]1C(=O)N[C@@H](CC(N)=O)C(=O)N[C@H]2C(=O)N[C@H]3C(=O)N[C@H](C(=O)N[C@H](C(=O)O)c4cc(O)cc(O)c4-c4cc3ccc4O)[C@H](O)c3ccc(c(Cl)c3)Oc3cc2cc(c3O[C@@H]2O[C@H](CO)[C@@H](O)[C@H](O)[C@H]2O[C@H]2C[C@](C)(N)[C@H](O)[C@H](C)O2)Oc2ccc(cc2Cl)[C@H]1O",
    "scale unit": "µg/mL",
    "MIC": 3.12
  },
  {
    "molecule": "C[N+]1(C)CC23c4c5c6c7c8c9c%10c%11c%12c%13c%14c%15c%16c%17c%18c%19c%20c(c2c2c4c4c6c6c8c%10c8c%12c%10c%14c(c%15%19)c%12c%20c2c2c4c6c8c%10c%122)C%18C2c4c6c8c%10c(c4-%17)C%16C%13C%114C[N+](C)(C)CC%104C=9C8C7C5=C6C23C1.[I-].[I-] (configuration not stated)",
    "scale unit": "µg/mL",
    "MIC": 6.25
  }
]

Query string: # get_value(readout='MIC', item= C[N+]1(C)CC23C4=C5C6=C7C8C9=c%10c%11c%12c%13c%14c%15c%16c%17c%18c%19c%20c%21c%22c%23c(c4c4c2c2c%24c%25c(c%10c(c%11%15)c%10c%16c%19c(c%25%10)c%10c%20c%23c4c%24%10)C2C9C73C1)C1C%22=C2c3c(c6c(c-%13c3C(C%14%17)C23C[N+](C)(C)CC%21%183)C%128)C51.[I-].[I-] (configuration not stated) )
Result string: 12.5

Query string: Would you mind telling me what MIC value was observed for C[N+]1(C)CC23c4c5c6c7c8c9c%10c%11c%12c%13c%14c%15c%16c%17c%18c%19c%20c%21c(c2c2c4c4c6c9c6c4c4c2c%21c2c%19c(c%18%14)c9c%13c%10c6c9c24)C2=C4c6c(c-%16c9c%10c6C(C5C7=C%10C5(C[N+](C)(C)CC8%115)C9C%15%12)C43C1)C%17C2%20.[I-].[I-] (configuration not stated) ?
Result string: 6.25

Query string: Would you kindly share the measured MIC for CCCCCCC1C23C4=c5c6c7c8c9c%10c%11c%12c%13c%14c%15c%16c%17c%18c%19c%20c%21c%22c%23c(c5c5c6c6c8c%11c8c%11c%12c%15c%12c(c%20%16)c%21c%15c%23c5c(c68)c%15c%12%11)C2(C[N+]1(C)C)C%22C%19c1c-%18c2c5c(c13)C4C7C9=C5C1(C2C%17%14)C(CCCCCC)[N+](C)(C)CC%10%131.[I-].[I-] (configuration not stated) ?
Result string: 25
